- Assay text: PK study and oral bioavailability, mouse
- Type: in vivo
- Test settings: IV 5 mg/kg, plasma 0 to 6 h, read-out: IV Administration (5 mg/kg) C0
Property: C0 (µg/mL)

{"Entry smiles": "CC(C)c1cc(C(C)C)c(S(=O)(=O)Nc2cc(C(F)(F)F)cc(C(F)(F)F)c2)c(C(C)C)c1", "Property": "C0", "Value measured": 54.6}
{"Entry smiles": "Cc1c(NS(=O)(=O)c2c(C(C)C)cc(C(C)C)cc2C(C)C)cc(C(F)(F)F)cc1C(F)(F)F", "Property": "C0", "Value measured": 53.7}

----------
- Tested on: triple negative breast cancer cell line MDA-MB-468
- Assay text: Cell-based IC50 assay, adherent cells, MDA-MB-468
- Test settings: Homo sapiens, 72 hours, CellTiter 96 Aqueous One, metabolically active cells decreased by 50%
pIC50: −log10 of the molar value.
Property: pIC50

{"Compound": "Cc1cc(C(C)(C)C)cc(C)c1S(=O)(=O)Nc1cc(C(F)(F)F)cc(C(F)(F)F)c1 [Compound 6]", "pIC50": 5.15}

I. Cc1cc(C(C)(C)C)cc(C)c1S(=O)(=O)Nc1cc(C(F)(F)F)cc(C(F)(F)F)c1C [Compound 9]
II. CC(C)c1cc(C(C)C)c(S(=O)(=O)Nc2ccc(Br)cc2)c(C(C)C)c1 [Reference compound 7]
QUERY: Hello, I am sorting some records. Could you say if I or II has the smaller pIC50 value? State the label of the item chosen.
RESULT: II
